The reported measurements were obtained from ChEMBL document CHEMBL3997782.

Molecular target: CYP2D6 (Homo sapiens, UniProt P10635)
Sequence (P10635 whole entry): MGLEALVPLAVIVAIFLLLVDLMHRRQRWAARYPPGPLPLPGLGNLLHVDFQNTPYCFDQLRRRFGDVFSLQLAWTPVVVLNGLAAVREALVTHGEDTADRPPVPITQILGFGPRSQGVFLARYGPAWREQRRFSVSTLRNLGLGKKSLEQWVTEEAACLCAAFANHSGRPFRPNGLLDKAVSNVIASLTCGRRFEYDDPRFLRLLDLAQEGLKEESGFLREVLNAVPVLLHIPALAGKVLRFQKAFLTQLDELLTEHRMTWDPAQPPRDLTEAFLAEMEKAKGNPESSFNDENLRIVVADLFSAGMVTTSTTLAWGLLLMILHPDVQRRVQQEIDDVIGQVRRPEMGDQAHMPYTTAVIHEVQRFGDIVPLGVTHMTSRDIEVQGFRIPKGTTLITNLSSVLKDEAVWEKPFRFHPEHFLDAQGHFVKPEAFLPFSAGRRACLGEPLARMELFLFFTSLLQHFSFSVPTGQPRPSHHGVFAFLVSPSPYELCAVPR
Test: Inhibition of human CYP2D6 expressed in baculovirus-infected insect cells at 10 uM using Luciferin-ME EGE as substrate in presence of NADPH by P450-Glo luminescence assay relative to control
Format: ADME
Conditions: probe Luciferin-ME EGE
Short version: inhibition at 10 µM at least 60% is met, less is not met.

{"chemical_smiles": "COc1ccc(O)c(C(=O)/C=C/c2ccc(OC)c(OC)c2)c1", "category_label": "met"}
{"chemical_smiles": "COc1ccc(/C=C/C(=O)c2cc(OC)ccc2O)cc1", "category_label": "met"}
{"chemical_smiles": "COc1ccc(O)c(C(=O)/C=C/c2cc(OC)c(OC)c(OC)c2)c1", "category_label": "met"}
{"chemical_smiles": "COc1ccc(C(=O)/C=C/c2c(OC)cccc2OC)c(O)c1", "category_label": "not met"}
{"chemical_smiles": "COc1ccc(C(=O)/C=C/c2ccc(OC)c(OC)c2)c(O)c1", "category_label": "met"}
{"chemical_smiles": "COc1ccc(O)c(C(=O)/C=C/c2c(OC)cccc2OC)c1", "category_label": "not met"}
{"chemical_smiles": "COc1cccc(/C=C/C(=O)c2ccc(OC)cc2O)c1", "category_label": "not met"}
{"chemical_smiles": "COc1ccc(/C=C/C(=O)c2ccc(OC)cc2O)cc1", "category_label": "not met"}
{"chemical_smiles": "COc1cccc(/C=C/C(=O)c2ccccc2O)c1", "category_label": "not met"}
{"chemical_smiles": "COc1cc(O)c(C(=O)/C=C/c2cc(OC)c(OC)c(OC)c2)cc1OC", "category_label": "not met"}
{"chemical_smiles": "COc1ccc(C(=O)/C=C/c2cc(OC)c(OC)c(OC)c2)c(O)c1", "category_label": "met"}
{"chemical_smiles": "COc1cccc(/C=C/C(=O)c2cc(OC)ccc2O)c1", "category_label": "not met"}

====

System: 786-0
Test: Mitochondrial toxicity in human 786-O cells at 10 uM by mitotracker red chloromethyl-Xrosamine staining based-uptake method relative to control
Format: cell-based
Conditions: 786-0, 10 µM
readout_kind: Activity (%)

{"chemical_smiles": "COc1ccc(/C=C/C(=O)c2ccc(OC)cc2O)cc1", "readout_kind": "Activity", "unit_of_measure": "%", "value_observed": 14.2}
{"chemical_smiles": "COc1ccc(/C=C/C(=O)c2cc(OC)ccc2O)cc1", "readout_kind": "Activity", "unit_of_measure": "%", "value_observed": 15.8}
{"chemical_smiles": "COc1ccc(C(=O)/C=C/c2c(OC)cccc2OC)c(O)c1", "readout_kind": "Activity", "unit_of_measure": "%", "value_observed": 0}
{"chemical_smiles": "COc1cccc(/C=C/C(=O)c2cc(OC)ccc2O)c1", "readout_kind": "Activity", "unit_of_measure": "%", "value_observed": 13.4}
{"chemical_smiles": "COc1cccc(/C=C/C(=O)c2ccc(OC)cc2O)c1", "readout_kind": "Activity", "unit_of_measure": "%", "value_observed": -2.9}
{"chemical_smiles": "COc1ccc(C(=O)/C=C/c2ccc(OC)c(OC)c2)c(O)c1", "readout_kind": "Activity", "unit_of_measure": "%", "value_observed": -5.8}
{"chemical_smiles": "COc1cccc(/C=C/C(=O)c2ccccc2O)c1", "readout_kind": "Activity", "unit_of_measure": "%", "value_observed": 6.2}
{"chemical_smiles": "COc1cc(O)c(C(=O)/C=C/c2cc(OC)c(OC)c(OC)c2)cc1OC", "readout_kind": "Activity", "unit_of_measure": "%", "value_observed": 10}
{"chemical_smiles": "COc1ccc(C(=O)/C=C/c2cc(OC)c(OC)c(OC)c2)c(O)c1", "readout_kind": "Activity", "unit_of_measure": "%", "value_observed": 1.1}
{"chemical_smiles": "COc1cccc(/C=C/C(=O)c2cc(OC)c(OC)cc2O)c1", "readout_kind": "Activity", "unit_of_measure": "%", "value_observed": 3.6}
{"chemical_smiles": "COc1ccc(O)c(C(=O)/C=C/c2cc(OC)c(OC)c(OC)c2)c1", "readout_kind": "Activity", "unit_of_measure": "%", "value_observed": -6.4}
{"chemical_smiles": "COc1ccc(O)c(C(=O)/C=C/c2ccc(OC)c(OC)c2)c1", "readout_kind": "Activity", "unit_of_measure": "%", "value_observed": -9.5}
{"chemical_smiles": "COc1ccc(O)c(C(=O)/C=C/c2c(OC)cccc2OC)c1", "readout_kind": "Activity", "unit_of_measure": "%", "value_observed": 14.6}

====

Target: Aurora kinase B (Homo sapiens, UniProt Q96GD4)
Sequence (Q96GD4 whole entry): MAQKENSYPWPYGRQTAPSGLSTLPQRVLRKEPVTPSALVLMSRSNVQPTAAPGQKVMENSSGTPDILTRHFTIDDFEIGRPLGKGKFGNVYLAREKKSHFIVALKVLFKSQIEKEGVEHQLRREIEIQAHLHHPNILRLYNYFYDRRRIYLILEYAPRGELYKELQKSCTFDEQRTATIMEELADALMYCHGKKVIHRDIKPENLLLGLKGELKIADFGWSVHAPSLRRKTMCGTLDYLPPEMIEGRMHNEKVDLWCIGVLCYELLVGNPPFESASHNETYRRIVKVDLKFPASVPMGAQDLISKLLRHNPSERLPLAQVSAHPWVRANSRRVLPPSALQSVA
Assay: Inhibition of N-terminal-GST-tagged recombinant full length human Aurora B expressed in baculovirus infected Sf9 cells at 10 uM using native Swine Myelin Basic Protein as substrate measured after 60 mins by ADP-Glo assay relative to control
Settings: probe native Swine Myelin Basic Protein
Reported inhibition at 1 h, 10 µM values follow for various molecules

{"chemical_smiles": "COc1cccc(/C=C/C(=O)c2ccc(OC)cc2O)c1", "inhibition at 1 h, 10 µM": "-10.6%"}
{"chemical_smiles": "COc1ccc(/C=C/C(=O)c2ccc(OC)cc2O)cc1", "inhibition at 1 h, 10 µM": "107%"}
{"chemical_smiles": "COc1ccc(O)c(C(=O)/C=C/c2ccc(OC)c(OC)c2)c1", "inhibition at 1 h, 10 µM": "-10.1%"}
{"chemical_smiles": "COc1ccc(/C=C/C(=O)c2cc(OC)ccc2O)cc1", "inhibition at 1 h, 10 µM": "107%"}
{"chemical_smiles": "COc1cccc(/C=C/C(=O)c2ccccc2O)c1", "inhibition at 1 h, 10 µM": "-6.6%"}
{"chemical_smiles": "COc1ccc(C(=O)/C=C/c2ccc(OC)c(OC)c2)c(O)c1", "inhibition at 1 h, 10 µM": "-10.4%"}
{"chemical_smiles": "COc1ccc(O)c(C(=O)/C=C/c2cc(OC)c(OC)c(OC)c2)c1", "inhibition at 1 h, 10 µM": "-8.1%"}

====

Target: UniProt:Q12809
Sequence (Q12809 whole entry): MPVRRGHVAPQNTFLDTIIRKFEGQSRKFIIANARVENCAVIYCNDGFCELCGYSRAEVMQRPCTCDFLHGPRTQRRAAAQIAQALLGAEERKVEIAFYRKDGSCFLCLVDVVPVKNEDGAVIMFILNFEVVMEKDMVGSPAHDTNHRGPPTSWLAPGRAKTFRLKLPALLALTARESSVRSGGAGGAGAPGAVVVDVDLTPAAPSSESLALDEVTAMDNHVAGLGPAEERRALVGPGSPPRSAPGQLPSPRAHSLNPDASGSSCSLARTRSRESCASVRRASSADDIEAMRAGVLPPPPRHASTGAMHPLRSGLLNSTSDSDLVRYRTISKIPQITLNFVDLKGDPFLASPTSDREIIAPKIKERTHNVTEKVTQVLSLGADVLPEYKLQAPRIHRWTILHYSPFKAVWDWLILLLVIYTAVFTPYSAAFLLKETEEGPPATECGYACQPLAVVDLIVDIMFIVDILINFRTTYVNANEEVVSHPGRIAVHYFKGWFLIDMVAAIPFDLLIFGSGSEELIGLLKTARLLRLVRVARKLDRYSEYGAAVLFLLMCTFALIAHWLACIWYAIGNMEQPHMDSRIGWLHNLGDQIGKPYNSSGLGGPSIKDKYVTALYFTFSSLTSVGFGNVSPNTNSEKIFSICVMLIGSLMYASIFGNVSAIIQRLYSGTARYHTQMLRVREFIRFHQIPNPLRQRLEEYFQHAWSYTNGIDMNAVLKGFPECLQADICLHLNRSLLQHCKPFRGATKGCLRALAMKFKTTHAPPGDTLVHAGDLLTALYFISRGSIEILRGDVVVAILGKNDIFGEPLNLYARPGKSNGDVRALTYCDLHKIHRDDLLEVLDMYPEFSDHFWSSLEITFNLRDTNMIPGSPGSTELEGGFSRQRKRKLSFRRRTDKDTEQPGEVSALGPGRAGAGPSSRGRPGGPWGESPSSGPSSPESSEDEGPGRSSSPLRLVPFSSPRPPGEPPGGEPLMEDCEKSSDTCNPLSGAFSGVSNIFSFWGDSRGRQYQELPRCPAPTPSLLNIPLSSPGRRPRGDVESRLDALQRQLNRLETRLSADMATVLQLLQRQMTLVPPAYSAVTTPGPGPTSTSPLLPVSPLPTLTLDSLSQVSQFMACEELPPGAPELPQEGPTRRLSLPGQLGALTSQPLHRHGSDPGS
Experiment: Inhibition of human ERG at 10 uM by Tracer Red dye based fluorescence polarization assay relative to control
Settings: probe Tracer Red dye
Reported inhibition at 10 µM values follow for various compounds
readout_kind: inhibition at 10 µM

{"chemical_smiles": "COc1ccc(/C=C/C(=O)c2cc(OC)ccc2O)cc1", "value_observed": "42.1%"}
{"chemical_smiles": "COc1ccc(O)c(C(=O)/C=C/c2ccc(OC)c(OC)c2)c1", "value_observed": "15.9%"}
{"chemical_smiles": "COc1cccc(/C=C/C(=O)c2cc(OC)ccc2O)c1", "value_observed": "17.6%"}
{"chemical_smiles": "COc1ccc(C(=O)/C=C/c2cc(OC)c(OC)c(OC)c2)c(O)c1", "value_observed": "34.7%"}

====

Assay: Cytotoxicity against human […] cells assessed as cell growth at 10 uM by Cell titer-Glo assay relative to control
Type: cell-based
Conditions: WI-38 cells, read-out: Activity
hey, just use Met if measured viability at 10 µM is less than 10%, otherwise Not met

{"chemical_smiles": "COc1ccc(/C=C/C(=O)c2ccc(OC)cc2O)cc1", "category_label": "Not met"}
{"chemical_smiles": "COc1cccc(/C=C/C(=O)c2cc(OC)ccc2O)c1", "category_label": "Not met"}
{"chemical_smiles": "COc1ccc(C(=O)/C=C/c2c(OC)cccc2OC)c(O)c1", "category_label": "Met"}
{"chemical_smiles": "COc1ccc(O)c(C(=O)/C=C/c2c(OC)cccc2OC)c1", "category_label": "Not met"}
{"chemical_smiles": "COc1cccc(/C=C/C(=O)c2ccc(OC)cc2O)c1", "category_label": "Not met"}
{"chemical_smiles": "COc1cccc(/C=C/C(=O)c2cc(OC)c(OC)cc2O)c1", "category_label": "Not met"}

====

Reported selectivity ratio values follow for various molecules
Test: Selectivity index, ratio of CC50 for human THP1 cells to EC50 for anti-parasitic activity against bloodstream form of Trypanosoma brucei brucei Lister 427
Format: toxicity
Settings: THP-1 cells, read-out: Ratio CC50/EC50

{"chemical_smiles": "COc1ccc(C(=O)/C=C/c2c(OC)cccc2OC)c(O)c1", "selectivity ratio": "≥ 29"}
{"chemical_smiles": "COc1ccc(O)c(C(=O)/C=C/c2cc(OC)c(OC)c(OC)c2)c1", "selectivity ratio": "≥ 6"}
{"chemical_smiles": "COc1ccc(O)c(C(=O)/C=C/c2c(OC)cccc2OC)c1", "selectivity ratio": "≥ 12"}
{"chemical_smiles": "COc1cc(O)c(C(=O)/C=C/c2cc(OC)c(OC)c(OC)c2)cc1OC", "selectivity ratio": "≥ 3"}
{"chemical_smiles": "COc1cccc(/C=C/C(=O)c2ccccc2O)c1", "selectivity ratio": "≥ 19"}
{"chemical_smiles": "COc1cccc(/C=C/C(=O)c2ccc(OC)cc2O)c1", "selectivity ratio": "≥ 7"}
{"chemical_smiles": "COc1cccc(/C=C/C(=O)c2cc(OC)ccc2O)c1", "selectivity ratio": "≥ 12"}
